- Tgt: Phosphodiesterase 3 (Homo sapiens, UniProt Q14432+Q13370)
- Assay: Inhibition of human platelet PDE3 by [3H]cGMP scintillation proximity assay
Measurement Name: IC50 (nM)

Solved entries:
{"Compound": "CC(C)Cn1c(=O)n(C)c(=O)c2[nH]c(Cc3cncc4ccccc34)nc21", "Measurement Name": "IC50", "Unit Tag": "nM", "Reported": 1850}
{"Compound": "COc1cc2c(Cc3nc4c([nH]3)c(=O)n(C)c(=O)n4CC(C)C)cnc(C)c2cc1OC", "Measurement Name": "IC50", "Unit Tag": "nM", "Reported": 42}
{"Compound": "COc1cc2cncc(Cc3nc4c([nH]3)c(=O)n(C)c(=O)n4CC(C)(C)C)c2cc1OC", "Measurement Name": "IC50", "Unit Tag": "nM", "Reported": 1060}
{"Compound": "COc1cc2cncc(Cc3nc4c([nH]3)c(=O)n(C)c(=O)n4CC(C)CO)c2cc1OC (racemic)", "Measurement Name": "IC50", "Unit Tag": "nM", "Reported": 2710}
{"Compound": "COc1ccc2cncc(Cc3nc4c([nH]3)c(=O)n(C)c(=O)n4CC(C)C)c2c1", "Measurement Name": "IC50", "Unit Tag": "nM", "Reported": 2220}

(A) COc1cc2cncc(Cc3nc4c([nH]3)c(=O)n(C)c(=O)n4CC3CC3)c2cc1OC
(B) COc1cc2cncc(Cc3nc4c([nH]3)c(=O)n(C)c(=O)n4Cc3ccc(NS(=O)(=O)C(C)C)cc3)c2cc1OC
(C) COc1cc2cncc(Cc3nc4c([nH]3)c(=O)n(C)c(=O)n4CC(C)C)c2cc1OC
Query: Put the items in sequence by IC50, from largest down. Lab note: final answer is the ordered label list.
Reply: B, A, C

* * *

- Assay: Intrinsic clearance in dog microsomes
- Format: ADME, Canis lupus familiaris, Liver, Microsome
Measurement Name: clearance (µL/min/mg)
Respond numerically; units are µL/min/mg and should not be typed.

Query: Quickly give me recorded clearance for COc1ccc2cncc(Cc3nc4c([nH]3)c(=O)n(C)c(=O)n4CC(C)C)c2c1
Reply: 6

* * *

- Assay: Volume of distribution at steady state in rat
- Assay type: ADME, organism-based
- Setup Conditions: in vivo, read-out: Vdss
Measurement Name: Vd (L/kg)
Enter your answer as a number in L/kg; do not include the unit.

Query: Look up and state reported Vd for COc1ccc2cncc(Cc3nc4c([nH]3)c(=O)n(C)c(=O)n4CC(C)C)c2c1
Reply: 2.9

* * *

- Tgt: cGMP-specific 3',5'-cyclic phosphodiesterase (Homo sapiens)
Measurement Name: IC50 (nM)

Solved entries:
{"Smiles Record": "COc1cc2cncc(Cc3nc4c(c(=O)n(C)c(=O)n4CC(C)C)n3C)c2cc1OC", "Measurement Name": "IC50", "Reported": 553}
{"Smiles Record": "C=C(C)Cn1c(=O)n(C)c(=O)c2[nH]c(Cc3cncc4cc(OC)c(OC)cc34)nc21", "Measurement Name": "IC50", "Reported": 30}
{"Smiles Record": "COc1cc2cncc(Cc3nc4c([nH]3)c(=O)n(C)c(=O)n4CC(C)C)c2cc1OC", "Measurement Name": "IC50", "Reported": 9}

(1) COc1cc2cncc(Cc3nc4c([nH]3)c(=O)n(CC(C)C)c(=O)n4CC(C)C)c2cc1OC
(2) COc1cc2cncc(Cc3nc4c([nH]3)c(=O)n(C)c(=O)n4CC3CCCCC3)c2cc1OC
Query: Hello, I am sorting some records. Could you say if 1 or 2 has the smaller IC50 value? Selection: enter the item's label.
Reply: 2
